# Tested on: T-47D breast
# method-notes: NCI-60 one-dose screen, 48 h (100 = growth as untreated, 0 = no growth, -100 = all killed)
# condition-label: 10 µM unless noted
The panel holds about 83,000 compounds, 20% with a hit somewhere; the sample as a whole holds those more often. Active and inactive are the calls of the source. Rule for the calls: active = growth percent below 10; inactive = the rest.
Catalogue of growth values

// solved cases for growth follow
- compound: "C[n+]1ccc(CCc2c[nH]c3ccccc23)cc1"
  growth: "72.6% (inactive)"
- compound: "O=C(N/N=C\\c1cccc([N+](=O)[O-])c1)N/N=C/c1cccc([N+](=O)[O-])c1"
  growth: "97.2% (inactive)"

stdin: Any idea what its growth is? The compound is "CCOC(=O)c1c(C)nc2ccccc2c1/C=C/c1cccs1"
stdout: 17.4% (inactive)

stdin: For "CC(=O)O[C@H]1C[C@@H]2C(C)(C)C(=O)CC[C@@]2(C)c2ccc(C(C)C)cc21" , what is its reported growth?
stdout: 102% (inactive)

stdin: Request the reported growth associated with "N#Cc1cncc(-c2ccc3ncnc(Nc4cccc(Cl)c4)c3c2)c1"
stdout: 56.4% (inactive)

stdin: // growth lookup, key: "Fc1cc(Nc2ccc3c(OCCCN4CCOCC4)cccc3n2)ccc1Cl"
stdout: 48.2% (inactive)

Hey, just so you know, these numbers are from PubChem BioAssay (NCI).
